molecular target: Luciferin 4-monooxygenase (Photinus pyralis) (UniProt P08659); assay: Firefly luciferase counterscreen qHTS: Assay Interference Panel against the NCATS CANVASS Library (AID 1347363); settings: purified firefly luciferase, luminescence inhibition, 5 min; series mostly up to 57.5 µM
Sequence (P08659 whole entry, looked up): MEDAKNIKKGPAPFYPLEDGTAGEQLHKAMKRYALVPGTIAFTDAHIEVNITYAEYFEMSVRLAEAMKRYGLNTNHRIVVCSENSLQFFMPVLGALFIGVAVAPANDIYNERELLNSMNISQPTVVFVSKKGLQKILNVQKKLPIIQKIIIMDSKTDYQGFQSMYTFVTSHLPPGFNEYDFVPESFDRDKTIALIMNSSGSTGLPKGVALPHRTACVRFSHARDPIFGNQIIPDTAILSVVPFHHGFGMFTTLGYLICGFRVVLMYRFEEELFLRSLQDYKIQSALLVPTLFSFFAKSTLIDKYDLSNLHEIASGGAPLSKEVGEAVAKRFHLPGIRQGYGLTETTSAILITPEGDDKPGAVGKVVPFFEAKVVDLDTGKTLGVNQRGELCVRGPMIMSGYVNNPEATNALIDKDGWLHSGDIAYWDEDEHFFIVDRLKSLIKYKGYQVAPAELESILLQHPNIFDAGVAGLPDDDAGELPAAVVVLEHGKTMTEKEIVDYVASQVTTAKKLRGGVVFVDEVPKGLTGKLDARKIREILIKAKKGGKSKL
Calls of active or inactive are those of the source. Calls follow the shape of the dose curve; as a rule, active = well fitted curve in the direction sought with a large enough effect; inconclusive = small, poorly fitted or top-dose-only effect, or another doubt; inactive = no such curve, though single readings can be large or run the other way. Numbered stars: 1 amine (or outer) side, 2 acyl side, 3 side chain; on linkers, the order of the positions; unused ones are H or OH. Square brackets hold non-standard residues; d marks the D form. Peptide text beside a SMILES is read from it. ξ: configuration not given here. X4 = O=C(C1CC2(c3ccc(O)cc3)c3ccccc3NC2N1[*:1])[*:2]; ξW = NC(Cc1c[nH]c2ccccc12)C(=O)O; ξY = NC(Cc1ccc(O)cc1)C(=O)O
Just give me one of these, please: 1 for active, -1 for inactive

Illustrative cases are given below, each with its answer.
INSERT INTO assay_data (molecule, tgt, class_label) VALUES
  ('CC[C@H](C)[C@H](NC(=O)C(Cc1ccc(O)cc1)NC(=O)C(Cc1c[nH]c2ccccc12)NC(=O)[C@H](C)N)C(=O)N1C(C(=O)NC(Cc2ccc(O)cc2)C(=O)O)CC2(c3ccc(O)cc3)c3ccccc3NC12 (stereo partly drawn) (H-A[ξW][ξY]I[X4][ξY]-OH)', 'Luciferin 4-monooxygenase (Photinus pyralis) (UniProt P08659)', -1),
  ('Cc1cc(O)cc2oc(C[C@H](C)O)cc(=O)c12', 'Luciferin 4-monooxygenase (Photinus pyralis) (UniProt P08659)', -1),
  ('C[C@@H]1C[C@H]2C[C@]3(CCCCN3C)[C@@H]3C[C@H]2[C@H](C1)N(C)C3', 'Luciferin 4-monooxygenase (Photinus pyralis) (UniProt P08659)', -1),
  ('CC(C)=CCC[C@@H](C)[C@@H]1CC[C@@]2(C)C[C@H]3C(C)=CC(=O)[C@@H]3/C(C=O)=C\C[C@H]12', 'Luciferin 4-monooxygenase (Photinus pyralis) (UniProt P08659)', -1),
  ('COc1c(O)cc2oc(-c3ccccc3)cc(=O)c2c1O', 'Luciferin 4-monooxygenase (Photinus pyralis) (UniProt P08659)', 1),
  ('CC(=O)[C@@H]1[C@@H](O)C[C@H]2[C@]3(C)CC[C@H]4C(C)(C)CCC[C@]4(CO)[C@H]3C[C@H]3OC(=O)[C@@H]1[C@@]32C', 'Luciferin 4-monooxygenase (Photinus pyralis) (UniProt P08659)', -1);

Input: Name the outcome recorded for `CC1(C)[C@H](Br)CC[C@]23C[C@]4(C)C(=O)CC12C[C@H]34` in the assay.
Output: -1

Input: Name the outcome recorded for `O=C(O)[C@@]12COC3(O)C1CCN1CC[C@H]3[C@@H]1c1c2[nH]c2ccccc12` in the assay.
Output: -1

----------
assay: Tertiary RLuc qRT-PCR qHTS assay for Zika virus inhibitors (AID 1347169); conditions: infected Vero cells, reporter luminescence, 48-72 h; series mostly up to 1.74 µM; also: nearly all actives have a fitted effect of over 55% in size; also: potency is read from the fitted curve at half-maximal effect
Records with an inconclusive call do not appear. The source made the active and inactive calls. The call rests on the fitted dose curve; in most records, active means well fitted inhibition curve with a large enough effect; inconclusive means small, poorly fitted or top-dose-only effect; inactive means no such curve, though single readings can be large or run the other way.
Quantity Measured: Potency

Example cases with answers are listed next.
INSERT INTO assay_data (compound, value_reported) VALUES
  ('Oc1cc2ccccc2c2ccccc12', '6.02 µM (active)'),
  ('COC(=O)c1ccc(NC(=O)CSc2ccc(-c3sc(-c4ccccc4)nc3C)nn2)cc1', 'inactive'),
  ('O=C(OCC#CCSc1nnc(-c2cccc3ccccc23)o1)c1cccc(C(F)(F)F)c1', 'inactive'),
  ('O=C(COc1ccccc1C(=O)OCC(=O)Nc1cccc2ccccc12)Nc1ccc(Br)cc1', 'inactive'),
  ('O=C(OCC#CCSc1nnc(-c2cccc3ccccc23)o1)c1ccc(SC(F)(F)F)cc1', 'inactive');

In plain terms, `COc1ccc(OC)c(Nc2sc(C(=O)c3ccccc3)c(N)c2S(=O)(=O)c2ccccc2)c1` has a documented Potency of inactive

In plain terms, O=C(O[C@@H]1Cc2c(O)cc(O)cc2OC1c1ccc(O)c(O)c1)c1cc(O)c(O)c(O)c1 (some centres undefined) has a documented Potency of inactive

In plain terms, `Fc1cc(C2=Nn3c(COc4ccc(Cl)cc4Cl)nnc3S/C2=C\c2ccc(-c3ccc(Cl)cc3)o2)c(Cl)cc1Cl` has a documented Potency of inactive

In plain terms, O=C(O)COc1ccc(-c2nccc3c2C(=O)N(Cc2cccc(C(F)(F)F)c2)CC(COc2ccc(OC(F)(F)F)cc2)O3)cc1 (centres undefined) has a documented Potency of inactive

// provenance: PubChem BioAssay (NCATS)
